Biological target: M. fascicularis KLB and human FGFR1c co-expressed on HEK293/MfKLB/hFGFR1c/SRE-Luc cells (M. fascicularis; human, UniProt A0A2K5WB58 1-1044)
Sequence (chain, as listed by the source, chain 1 of 2): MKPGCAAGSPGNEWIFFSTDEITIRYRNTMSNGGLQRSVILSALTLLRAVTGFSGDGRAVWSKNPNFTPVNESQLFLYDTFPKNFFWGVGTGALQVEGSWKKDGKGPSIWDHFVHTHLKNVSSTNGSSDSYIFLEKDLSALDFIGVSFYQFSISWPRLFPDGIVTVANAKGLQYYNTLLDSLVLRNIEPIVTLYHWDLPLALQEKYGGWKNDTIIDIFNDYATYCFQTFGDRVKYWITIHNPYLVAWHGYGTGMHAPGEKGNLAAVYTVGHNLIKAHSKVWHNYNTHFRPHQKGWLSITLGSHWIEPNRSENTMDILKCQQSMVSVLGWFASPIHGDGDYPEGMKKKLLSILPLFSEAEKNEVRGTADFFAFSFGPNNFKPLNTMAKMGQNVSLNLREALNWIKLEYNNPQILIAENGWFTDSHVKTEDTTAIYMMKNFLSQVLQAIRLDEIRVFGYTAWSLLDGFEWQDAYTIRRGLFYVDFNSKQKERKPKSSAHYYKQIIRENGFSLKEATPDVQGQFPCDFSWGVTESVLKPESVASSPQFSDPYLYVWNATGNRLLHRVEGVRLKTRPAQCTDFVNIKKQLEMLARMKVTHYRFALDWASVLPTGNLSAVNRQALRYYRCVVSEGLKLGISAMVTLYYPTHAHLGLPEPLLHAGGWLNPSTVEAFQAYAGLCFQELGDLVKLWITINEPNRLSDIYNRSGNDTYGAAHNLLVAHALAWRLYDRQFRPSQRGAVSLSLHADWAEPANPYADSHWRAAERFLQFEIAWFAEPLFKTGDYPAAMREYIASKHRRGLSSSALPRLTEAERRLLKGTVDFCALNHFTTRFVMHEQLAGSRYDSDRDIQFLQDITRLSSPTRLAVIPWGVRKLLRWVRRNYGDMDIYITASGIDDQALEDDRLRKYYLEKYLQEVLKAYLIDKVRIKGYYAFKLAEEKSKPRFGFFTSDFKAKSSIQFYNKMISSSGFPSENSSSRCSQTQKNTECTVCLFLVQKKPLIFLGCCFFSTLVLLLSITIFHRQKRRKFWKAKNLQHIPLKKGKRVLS
Sequence (chain, as listed by the source, chain 2 of 2): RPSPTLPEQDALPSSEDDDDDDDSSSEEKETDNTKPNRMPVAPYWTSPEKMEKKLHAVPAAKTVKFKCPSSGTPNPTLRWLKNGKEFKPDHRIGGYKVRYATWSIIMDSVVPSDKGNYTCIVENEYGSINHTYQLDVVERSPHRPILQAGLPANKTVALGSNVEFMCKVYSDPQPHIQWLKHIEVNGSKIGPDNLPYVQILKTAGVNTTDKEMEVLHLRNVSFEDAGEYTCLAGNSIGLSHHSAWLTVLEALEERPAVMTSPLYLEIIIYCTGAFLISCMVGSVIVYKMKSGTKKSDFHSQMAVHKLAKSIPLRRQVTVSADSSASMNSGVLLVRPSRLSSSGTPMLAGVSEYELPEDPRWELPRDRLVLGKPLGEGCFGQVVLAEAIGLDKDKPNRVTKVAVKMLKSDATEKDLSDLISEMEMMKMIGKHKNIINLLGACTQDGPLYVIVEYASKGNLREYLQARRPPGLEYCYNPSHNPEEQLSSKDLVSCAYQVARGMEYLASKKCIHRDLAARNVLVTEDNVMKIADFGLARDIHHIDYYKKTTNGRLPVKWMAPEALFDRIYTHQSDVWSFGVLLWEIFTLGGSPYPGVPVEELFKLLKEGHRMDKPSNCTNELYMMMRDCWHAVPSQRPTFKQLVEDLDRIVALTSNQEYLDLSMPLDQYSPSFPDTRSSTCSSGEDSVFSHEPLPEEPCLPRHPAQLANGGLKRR
Assay: cell-based or functional assay
parameter.measured: EC50, SRE-luc activation without ligand (nM)
Report the value in nM with no unit label.

INPUT: Report measured EC50, SRE-luc activation without ligand; entry is H4H8871P (antibody, V domains shown, human IgG4 Fc (H4H prefix)) VH: QVQLQESGPGLVKPSETLSLTCTVSGASISSYYWSWIRQPPGKGLEWIGYIYSSGIIKYNPSLKSRVTISADTSKNQFSLKLSSVTAADTAVYYCARHGIFGVMEYFQRWGQGTLVTVSS VL: DIQMTQSPSSLSASIGDRVTITCQASQDIGNFLNWYHQKPGKAPTLLIYDASNMETGVPSRFRGSGSGTYFTFIISSLQPEDVATYYCQQYDNLPLTFGGGTKVEIK
OUTPUT: 0.13

INPUT: Annotate the binder H4H8856P (antibody, V domains shown, human IgG4 Fc (H4H prefix)) VH: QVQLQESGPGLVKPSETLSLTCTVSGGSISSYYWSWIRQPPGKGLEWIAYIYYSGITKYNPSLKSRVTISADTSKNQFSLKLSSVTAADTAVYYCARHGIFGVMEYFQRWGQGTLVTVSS VL: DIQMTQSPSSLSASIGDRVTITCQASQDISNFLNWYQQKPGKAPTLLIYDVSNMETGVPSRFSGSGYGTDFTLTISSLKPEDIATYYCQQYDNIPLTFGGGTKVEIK with its measured EC50, SRE-luc activation without ligand.
OUTPUT: 0.18

INPUT: Report EC50, SRE-luc activation without ligand for H4H8881P (antibody, V domains shown, human IgG4 Fc (H4H prefix)) VH: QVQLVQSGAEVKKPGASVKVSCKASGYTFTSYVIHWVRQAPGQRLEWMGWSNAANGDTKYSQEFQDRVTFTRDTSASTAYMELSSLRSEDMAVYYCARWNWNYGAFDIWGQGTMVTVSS VL: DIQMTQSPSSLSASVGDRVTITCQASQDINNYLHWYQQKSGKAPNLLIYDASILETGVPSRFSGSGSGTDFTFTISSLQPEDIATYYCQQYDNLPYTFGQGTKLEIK
OUTPUT: 0.02
